test system: piricularia oryzae KF 180; test: microbe, parasite or virus in culture; type: cell-based
ENDPOINT: MIC

## Task Query MIC on piricularia oryzae KF 180 for `CC(=O)[C@H]1O[C@@H](Oc2ccc(/C=C(\C)C(=O)N[C@@H]3[C@H](O)[C@@H](O)[C@H]4OCO[C@H]4[C@@H]3O)cc2O)[C@@H](O)[C@@H]1O`
## Result >100 µg/mL

## Task Query MIC on piricularia oryzae KF 180 for `C=C[C@]1(C)C[C@@H](OC(=O)CSCCN(CC)CC)[C@]2(C)[C@H](C)CC[C@]3(CCC(=O)[C@H]32)[C@@H](C)[C@@H]1O`
## Result > 100 µg/mL

## Task Query MIC on piricularia oryzae KF 180 for `CC(=O)C(=O)N[C@@H]1/C=C(C)/C=C/[C@@H](O)C/C=C(C)/C=C/[C@@H](O)C[C@H]2OC(=O)[C@]1(C)C(=O)[C@@H]2C`
## Result >100 µg/mL

## Task Query MIC on piricularia oryzae KF 180 for `CCC[C@@H]1C[C@@H](C(=O)N[C@@H]([C@H]2O[C@H](SC)[C@H](O)[C@@H](O)[C@H]2O)[C@@H](C)O)N(C)C1`
## Result > 100 µg/mL
